- Tested on: Toxoplasma gondii
- experiment: Antiparasitic activity against Toxoplasma gondii 2F-1 expressing yellow fluorescent protein infected in HFF after 4 days
- Assay type: functional, organism-based
- recordedConditions: 2F-1, 96 h
Each entry below carries its reported IC50.

smilesStructure	unitTag	IC50
CC[C@H]1OC(=O)[C@H](C)[C@@H](O[C@H]2C[C@@](C)(OC)[C@@H](O)[C@H](C)O2)[C@H](C)[C@@H](O[C@@H]2O[C@H](C)C[C@H](N(C)C)[C@H]2O)[C@](C)(O)C[C@@H](C)CN(C)[C@H](C)[C@@H](O)[C@]1(C)O	µM	20
C=CCO[C@]1(C)C[C@@H](C)CN(CCC)[C@H](C)[C@@H](O)[C@](C)(O)[C@@H](CC)OC(=O)[C@H](C)[C@@H](O[C@H]2C[C@@](C)(OC)[C@@H](O)[C@H](C)O2)[C@H](C)[C@H]1O[C@@H]1O[C@H](C)C[C@H](N(C)C)[C@H]1O	µM	15
